Origin of the recorded values: patent US9233933B2

Provide the reported EC50 of each item.
system: HBV; test: anti-HBV activity in stable transfected HepG2.2.15 cell line, HBV DNA from secreted virions by realtime PCR; type: cell-based, Hepatitis B virus; conditions: Hepatitis B virus, HepG2.2.15, 144 h, read-out: HBV-HepG2 2.15 EC50
Give just the numeric value; µM need not be written.

Noted for COC(=O)C1=C(C)NC(c2ccccn2)=NC1(C)c1cccc(F)c1 (stereo not drawn) : its EC50 reads 72.4

Memo: COC(=O)C1=C(C)NC(c2ncc(F)cc2F)=NC1(C)c1ccc(F)c(F)c1 (stereo not drawn) [Compound 132b] , reported EC50: 0.784

Looking up COC(=O)C1=C(C)NC(c2ccc(F)cn2)=NC1(C)c1ccc(F)c(F)c1 (stereo not drawn) , I found its EC50 recorded as 17.3

* * *

experiment: Cytotoxicity in HepG2 cells using CellTiter-Blue, same incubation period as HepG2.2.15 assay; format: cell-based; conditions: human, HepG2 cells, 6 days, CellTiter-Blue; read-out: HepG2 6 days CC50
Field: CC50 at 6 days. Provide a value for each of the molecules that follow.
Respond numerically; units are µM and should not be typed.

Sure, the documented CC50 at 6 days for CCOC(=O)C1=C(CN2CCCC2)NC(c2ccccn2)=NC1(C)c1ccc(F)cc1 (centres unmarked) [Compound 7] is 13.4

Entry CCOC(=O)C1=C(C)NC(c2ccccn2)=NC1(c1ccc(F)cc1)C(F)(F)F (centres unmarked) [Compound 35] , CC50 at 6 days reported as 68.1

Short answer for CCOC(=O)C1=C(CN2CCSCC2)NC(c2ccccn2)=NC1(C)c1ccc(F)cc1 (centres unmarked) [Compound 8] : CC50 at 6 days was 54.3

Form: molecule = CCOC(=O)C1=C(CN2CCOCC2)NC(c2ncc(F)cc2F)=NC1(C)c1ccc(F)cc1 (centres unmarked) [Compound 24] ; CC50 at 6 days = 37.9

* * *

Kindly supply the reported CC50 at 6 days values for the records listed here.
experiment: Cytotoxicity in HepG2 cells using CellTiter-Blue, same incubation period as HepG2.2.15 assay; type: cell-based; settings: human, HepG2 6 days CC50
Give a bare numeral; the unit µM is implied.

// COC(=O)C1=C(C)NC(c2ncc(F)cc2F)=NC12CCCc1cc(F)ccc12 (centres unmarked) [Compound 80] : CC50 at 6 days value = 51.1

Sure, the documented CC50 at 6 days for CCOC(=O)C1=C(C)NC(c2ccccn2)=NC12CCc1cc(F)ccc12 (centres unmarked) [Compound 40] is 77

Kindly note the recorded CC50 at 6 days for COC(=O)C1=C(CN2CCOCC2)NC(c2ncc(F)cc2F)=NC12CC(C)(C)c1ccccc12 (centres unmarked) [Compound 93] , which is 41.5

// CC50 at 6 days lookup, molecule = COC(=O)C1=C(C)NC(c2ncc(F)cc2F)=NC12CC(C)(C)c1ccccc12 (single isomer, unassigned) [Compound 134a] , result: 53

* * *

system: HBV; assay: anti-HBV activity in stable transfected HepG2.2.15 cell line, HBV DNA from secreted virions by realtime PCR; type: cell-based, Hepatitis B virus; settings: Hepatitis B virus, HepG2.2.15, 144 h, HepG2.2.15 cells, 6 days of treatment, secreted virion HBV DNA; read-out: HBV-HepG2 2.15 EC50
readout name: EC50

Reported EC50 ( CCOC(=O)C1=C(CN2CCSCC2)NC(c2ccccn2)=NC1(C)c1ccc(F)cc1 (stereo not shown) [Compound 8] ) = 14800 nM

Recorded result, COC/C=C/C1=C(C(=O)OC)C(C)(c2ccc(F)c(F)c2)N=C(c2ncc(F)cc2F)N1 (stereo not shown) [Compound 147] , EC50: 2730 nM

Entry COC(=O)C1=C(CN2CCOCC2)NC(c2ccccn2)=N[C@@]12c1ccc(F)cc1C[C@H]2F (racemic) [Compound 175] , EC50 reported as < 195 nM

Input COC(=O)C1=C(CN2CCOCC2)NC(c2ccccn2)=NC12CCCc1cc(F)ccc12 (stereo not shown) [Compound 74] . Output EC50: 2060 nM
